Organism: Rattus norvegicus
Assay: Open TG-GATES - Regimen: Single
Format: toxicity, organism-based, Sprague-Dawley
Design: regimen Single, gender Male, age 6 weeks
Conditions: in vivo, po, 0 mg/kg, 9 h, tissue Plasma, route gavage, dose level Control
Kindly supply the reported TBIL values for the records listed here.
One number for each entry, in mg/dL.

Hi team, please reply with TBIL for each item in this list.
1. COc1ccc(Cl)cc1C(=O)NCCc1ccc(S(=O)(=O)NC(=O)NC2CCCCC2)cc1 [GLYBURIDE]
2. O=C1NC(=O)C(c2ccccc2)(c2ccccc2)N1 [PHENYTOIN]
3. Cc1cnc(NC(=O)C2=C(O)c3ccccc3S(=O)(=O)N2C)s1 [MELOXICAM]
4. CS(=O)(=O)Nc1ccc([N+](=O)[O-])cc1Oc1ccccc1 [NIMESULIDE]
5. Cc1cccc(Nc2cc(Cl)nc(SCC(=O)O)n2)c1C [PIRINIXIC ACID]
6. S=C=Nc1cccc2ccccc12 [1-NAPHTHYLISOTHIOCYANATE]

(A)
1. 0.1
2. 0.052
3. 0.1
4. 0.3
5. 0.038
6. 0.1
